Assay: Binding affinity to recombinant Bacteroides fragilis phosphonopyruvate decarboxylase using phosphonopyruvate as substrate
OUTCOME MEASURE: Ki (µM)
Numeric answer only, unit µM assumed.

I'd like to know its Ki. The compound in question is O=C(O)C(O)(O)C(F)(F)P(=O)(O)O
0.6
